Assay: Plasma pharmacokinetics of SHR9146 in mice (LC-MS/MS, non-compartmental analysis)
Format: in vivo, ICR mice
Conditions: both sexes, ICR, mouse, plasma, oral, 20 mg/kg, 20 mg/kg i.g. bid, 7 days; 7th day, 24 h; read-out: plasma drug concentration, individual mice #1-#6
Attribute measured: concentration at 24 h

If you can, please state the reported concentration at 24 h value of `OCCn1cc(-c2ccc(N3CCC([C@H]4c5c(F)cccc5-c5cncn54)CC3)cc2)cn1` .
54 ng/mL

====

Assay: Tissue distribution of SHR9146 in mice after oral gavage of 40 mg/kg
Assay type: in vivo, ICR mice
Conditions: female, ICR, mouse, small intestine, po, 40 mg/kg, female, 1 h, 40 mg/kg oral gavage, individual mice; read-out: SHR9146 concentration in Small intestine
Attribute measured: concentration at 1 h (ng/g)
Use ng/g as the unit, but write only the number.

If you can, please state the reported concentration at 1 h value of OCCn1cc(-c2ccc(N3CCC([C@H]4c5c(F)cccc5-c5cncn54)CC3)cc2)cn1 [SHR9146] .
19000

====

Experiment: Tissue distribution of SHR9146 in mice after oral gavage of 40 mg/kg
Format: in vivo, ICR mice
Conditions: male, ICR, mouse, liver, po, 40 mg/kg, male, 24 h, 40 mg/kg oral gavage, individual mice; read-out: SHR9146 concentration in Liver
Attribute measured: concentration at 24 h (ng/g)
Use ng/g as the unit, but write only the number.

If you can, please state the reported concentration at 24 h value of OCCn1cc(-c2ccc(N3CCC([C@H]4c5c(F)cccc5-c5cncn54)CC3)cc2)cn1 [SHR9146] .
330

====

Test: Tissue distribution of SHR9146 in mice after oral gavage of 40 mg/kg
Assay type: in vivo, ICR mice
Conditions: male, ICR, mouse, plasma, po, 40 mg/kg, male, 3 h, 40 mg/kg oral gavage, Mean (n=3); read-out: SHR9146 concentration in Plasma
Experimental: ICR mice with body weight 16–26 g were supplied by Shanghai Lingchang Biotechnology Co., Ltd. (animal breeding license number SCXK (Shanghai) 2013-0018) and housed at Shanghai Institute of Materia Medica, Chinese Academy of Sciences [animal use license number SYXK (Shanghai) 2015-0027]. The mice used in this study were fasted overnight for 12 h but had free access to water. Food was supplied 4 h post-dose. […]
Attribute measured: concentration at 3 h (ng/mL)
Use ng/mL as the unit, but write only the number.

If you can, please state the reported concentration at 3 h value of OCCn1cc(-c2ccc(N3CCC([C@H]4c5c(F)cccc5-c5cncn54)CC3)cc2)cn1 [SHR9146] .
3710

====

Test: Tissue distribution of SHR9146 in mice after oral gavage of 40 mg/kg
Assay type: in vivo, ICR mice
Conditions: female, ICR, mouse, skeletal muscle, po, 40 mg/kg, female, 3 h, 40 mg/kg oral gavage, Mean (n=3); read-out: SHR9146 concentration in Skeletal muscle
Attribute measured: concentration at 3 h (ng/g)
Use ng/g as the unit, but write only the number.

If you can, please state the reported concentration at 3 h value of `OCCn1cc(-c2ccc(N3CCC([C@H]4c5c(F)cccc5-c5cncn54)CC3)cc2)cn1` .
5910

====

Assay: Plasma pharmacokinetics of SHR9146 in mice (LC-MS/MS, non-compartmental analysis)
Format: in vivo, ICR mice
Settings: both sexes, ICR, mouse, plasma, oral, 20 mg/kg, 20 mg/kg i.g. bid, 7 days; 7th day, 1 h; read-out: plasma drug concentration, mean (n=6)
Description: ICR mice with body weight 16–26 g were supplied by Shanghai Lingchang Biotechnology Co., Ltd. (animal breeding license number SCXK (Shanghai) 2013-0018) and housed at Shanghai Institute of Materia Medica, Chinese Academy of Sciences [animal use license number SYXK (Shanghai) 2015-0027]. The mice used in this study were fasted overnight for 12 h but had free access to water. Food was supplied 4 h post-dose. […]
Attribute measured: concentration at 1 h (ng/mL)
Use ng/mL as the unit, but write only the number.

If you can, please state the reported concentration at 1 h value of `OCCn1cc(-c2ccc(N3CCC([C@H]4c5c(F)cccc5-c5cncn54)CC3)cc2)cn1` .
9430

====

Test: Plasma pharmacokinetics of SHR9146 in mice (LC-MS/MS, non-compartmental analysis)
Format: in vivo, ICR mice
Conditions: both sexes, ICR, mouse, plasma, oral, 80 mg/kg, 80 mg/kg i.g. single; 24 h; read-out: plasma drug concentration, individual mice #1-#6
Attribute measured: concentration at 24 h (ng/mL)
Use ng/mL as the unit, but write only the number.

If you can, please state the reported concentration at 24 h value of `OCCn1cc(-c2ccc(N3CCC([C@H]4c5c(F)cccc5-c5cncn54)CC3)cc2)cn1` .
96

====

Assay: Plasma pharmacokinetics of SHR9146 in mice (LC-MS/MS, non-compartmental analysis)
Assay type: in vivo, ICR mice
Details: both sexes, ICR, mouse, plasma, po, 20 mg/kg, 20 mg/kg i.g. bid, 7 days (7th-day steady state); all mice (Totol, 3 male + 3 female); plasma; read-out: AUC0-t
Attribute measured: AUC(0-t)

If you can, please state the reported AUC(0-t) value of `OCCn1cc(-c2ccc(N3CCC([C@H]4c5c(F)cccc5-c5cncn54)CC3)cc2)cn1` .
24200 ng·h/mL

====

Experiment: Tissue distribution of SHR9146 in mice after oral gavage of 40 mg/kg
Type: in vivo, ICR mice
Conditions: female, ICR, mouse, uterus, po, 40 mg/kg, female, 3 h, 40 mg/kg oral gavage, Mean (n=3); read-out: SHR9146 concentration in Uterus
Attribute measured: concentration at 3 h (ng/g)
Use ng/g as the unit, but write only the number.

If you can, please state the reported concentration at 3 h value of OCCn1cc(-c2ccc(N3CCC([C@H]4c5c(F)cccc5-c5cncn54)CC3)cc2)cn1 [SHR9146] .
6040

====

Test: Plasma pharmacokinetics of SHR9146 in mice (LC-MS/MS, non-compartmental analysis)
Type: in vivo, ICR mice
Details: both sexes, ICR, mouse, plasma, po, 80 mg/kg, 80 mg/kg i.g. single dose; all mice (Totol, 3 male + 3 female); plasma
Method: ICR mice with body weight 16–26 g were supplied by Shanghai Lingchang Biotechnology Co., Ltd. (animal breeding license number SCXK (Shanghai) 2013-0018) and housed at Shanghai Institute of Materia Medica, Chinese Academy of Sciences [animal use license number SYXK (Shanghai) 2015-0027]. The mice used in this study were fasted overnight for 12 h but had free access to water. Food was supplied 4 h post-dose. […]
Attribute measured: AUC(0-inf) (ng·h/mL)
Use ng·h/mL as the unit, but write only the number.

If you can, please state the reported AUC(0-inf) value of `OCCn1cc(-c2ccc(N3CCC([C@H]4c5c(F)cccc5-c5cncn54)CC3)cc2)cn1` .
70900

====

Assay: Plasma pharmacokinetics of SHR9146 in mice (LC-MS/MS, non-compartmental analysis)
Format: in vivo, ICR mice
Settings: male, ICR, mouse, plasma, iv, 5 mg/kg, 5 mg/kg i.v. single dose; male mice; plasma; read-out: t1/2 (converted)
Attribute measured: half-life (min)
Use min as the unit, but write only the number.

If you can, please state the reported half-life value of `OCCn1cc(-c2ccc(N3CCC([C@H]4c5c(F)cccc5-c5cncn54)CC3)cc2)cn1` .
45.7

====

Experiment: Plasma pharmacokinetics of SHR9146 in mice (LC-MS/MS, non-compartmental analysis)
Format: in vivo, ICR mice
Settings: both sexes, ICR, mouse, plasma, oral, 80 mg/kg, 80 mg/kg i.g. single; 3 h; read-out: plasma drug concentration, mean (n=6)
Attribute measured: concentration at 3 h (ng/mL)
Use ng/mL as the unit, but write only the number.

If you can, please state the reported concentration at 3 h value of `OCCn1cc(-c2ccc(N3CCC([C@H]4c5c(F)cccc5-c5cncn54)CC3)cc2)cn1` .
4670

====

Assay: Tissue distribution of SHR9146 in mice after oral gavage of 40 mg/kg
Assay type: in vivo, ICR mice
Details: female, ICR, mouse, abdominal fat, po, 40 mg/kg, female, 6 h, 40 mg/kg oral gavage, Mean (n=3); read-out: SHR9146 concentration in Abdominal fat
Attribute measured: concentration at 6 h (ng/g)
Use ng/g as the unit, but write only the number.

If you can, please state the reported concentration at 6 h value of `OCCn1cc(-c2ccc(N3CCC([C@H]4c5c(F)cccc5-c5cncn54)CC3)cc2)cn1` .
416

====

Test: Tissue distribution of SHR9146 in mice after oral gavage of 40 mg/kg
Assay type: in vivo, ICR mice
Settings: female, ICR, mouse, liver, po, 40 mg/kg, female, 24 h, 40 mg/kg oral gavage, individual mice; read-out: SHR9146 concentration in Liver
Attribute measured: concentration at 24 h (ng/g)
Use ng/g as the unit, but write only the number.

If you can, please state the reported concentration at 24 h value of `OCCn1cc(-c2ccc(N3CCC([C@H]4c5c(F)cccc5-c5cncn54)CC3)cc2)cn1` .
54
